# RUN DESCRIPTION: NCI Yeast Anticancer Drug Screen. Data for the rad50 strain (AID 155);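 also: 0% = growth of vehicle-only cultures of the same strain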
# ASSAY CONDITIONS: S. cerevisiae rad50 strain growth inhibition; at 50.0 µM; active compounds read high
# Protocol: Growth inhibition of yeast strains with defined genetic alterations is measured as a screen for potential anti-cancer activity. Selected strains with alterations in DNA damage repair or cell cycle control were exposed to compounds and growth inhibition was measured relative to vehicle treated controls. The strain used in this assay is rad50
Compounds without any hit were thinned out: in the full panel of roughly 79,000, 15% have a hit.
ENDPOINT LABEL: growth inhibition (%)
Answers are plain numbers, in %.

Before answering, review these 3 worked examples.
- O=C(O)c1ccccc1CC(Cc1ccc2c(c1)CCC2)C(=O)O (centres undefined): -7.55
- CSc1nc(SC)c(Cl)c(C(Cl)Cl)n1: 32.2
- N#Cc1c(O)cc(=O)n2c1[nH]c1ccccc12: -15.2

Field: growth inhibition. Fill in for each record below.
1. Cc1cccc(-c2cccc(C)c2C)c1C
2. CC(=O)OCC1OC(n2nnc3c(=O)n(C)c(=O)[nH]c32)C(OC(C)=O)C(OC(C)=O)C1OC(C)=O (centres undefined)

1: -6.5; 2: 9.45

Field: growth inhibition. Fill in for each record below.
1. C=CC12CCC(CC1)n1c(=O)n(C)c(=O)n12
2. O=C(O)c1c[nH]c2cc(OCc3ccc(Br)cc3)ccc2c1=O
3. Cc1cccc(CC(N)C(=O)O)c1 (centres undefined)
4. CC1(c2ccc(Cl)cc2)NC(=O)NC1=O (centres undefined)
5. Nc1ncc(Cl)cn1
6. O=P(Nc1ccc(Cl)cc1)(c1ccc(Cl)cc1)c1ccc(Cl)cc1
7. CC(=O)[C@H]1CC[C@H]2[C@@H]3CC=C4C=CCC[C@]4(C)[C@H]3CC[C@]12C

1: -8.05; 2: 13.8; 3: -5.15; 4: -27.3; 5: 19.6; 6: 17.6; 7: -6.3

Field: growth inhibition. Fill in for each record below.
1. C(=C\c1ccc(/C=C/c2ccccc2)nn1)/c1ccccc1
2. CNC(CCc1ccccc1)C(=O)O (centres undefined)
3. COC(=O)c1nc(SC)[nH]c1CC(N)=O
4. NC(=O)NCSCNC(N)=O

[-5.8, 1.9, 43.5, -0.7]

Field: growth inhibition. Fill in for each record below.
1. Cc1cccc(C(=O)OCc2ccccc2CN2CCCCC2)c1
2. O=C(/C(=N\Nc1ccc([N+](=O)[O-])cc1[N+](=O)[O-])c1ccccc1)c1ccccc1
3. Nc1ccc(Nc2cc(=O)[nH]c(=O)[nH]2)cc1Cl
4. O=CNC(Cc1ccccc1)c1ccc(OCc2ccccc2)cc1 (centres undefined)
5. Cc1c2cnccc2c(C)c2c1c1ccccc1n2CCNCc1ccccc1
6. Nc1nc2c(c(-c3ccccc3)n1)CN(CCCC(=O)O)C2=O

1: -5.15; 2: -11.6; 3: 5.8; 4: 0.75; 5: 98.2; 6: 5.75

Field: growth inhibition. Fill in for each record below.
1. CC(=O)OC/C=C1/CC[C@H]2[C@@H]3CCC4=CC(=O)CC[C@]4(C)[C@H]3[C@@H](O)C[C@]12C
2. COc1cc(C2C(Cl)C(=O)N2NC(=O)c2ccc(N)cc2)ccc1O (centres undefined)

[26.4, 5.15]

Field: growth inhibition. Fill in for each record below.
1. Cc1nsc2[nH]c(=O)n(Nc3ccc(O)cc3)c(=O)c12
2. O=C1c2c(-c3ccccc3)ccc(-c3ccccc3)c2C2(O)OC1(O)c1c(-c3ccccc3)ccc(-c3ccccc3)c1C2=O

[-13.6, 5.65]

Field: growth inhibition. Fill in for each record below.
1. CSc1nc(=O)cnn1C
2. CC(C)=NNS(=O)(=O)c1ccc(C)cc1
3. CCOC(=O)C(/C=C/C(C)C)(CC)C(=O)OCC
4. CC(C)c1cc(CN(C)C)c(O)c(C(C)(C)C)c1
5. Cc1cccnc1Nc1ncccc1C

1: -22.3; 2: -7.7; 3: -8.75; 4: -25.4; 5: 13.8

Field: growth inhibition. Fill in for each record below.
1. CCCCOC(=O)CNC(=O)c1ccc(C)c(OCc2ccccc2)c1[N+](=O)[O-]
2. O=C(O)C1=NN(c2cc(Cl)c(S(=O)(=O)O)cc2Cl)C(=O)C1
3. O=C(OCCO)c1ccc(O)c(O)c1
4. COc1ccc(CC(N)C(=O)N(C)C2C(CO)OC(n3cnc4c(N(C)C)ncnc43)C2O)cc1 (centres undefined)
5. O=C1c2ccccc2C(=O)N1CC#CCN1C(=O)c2ccccc2C1=O
6. Nc1ccc(S(=O)(=O)Nc2ccc([N+](=O)[O-])cn2)cc1
7. CSc1ccc(NC(=O)Nc2cccc(F)c2)cc1

0.5
-33.2
14.6
5.3
-6.95
-28.4
-2.15
